TESTED_SYSTEM: T1, human Trop-2 expressed on cell surface (human, UniProt P09758 27-323)
T1 sequence (looked up): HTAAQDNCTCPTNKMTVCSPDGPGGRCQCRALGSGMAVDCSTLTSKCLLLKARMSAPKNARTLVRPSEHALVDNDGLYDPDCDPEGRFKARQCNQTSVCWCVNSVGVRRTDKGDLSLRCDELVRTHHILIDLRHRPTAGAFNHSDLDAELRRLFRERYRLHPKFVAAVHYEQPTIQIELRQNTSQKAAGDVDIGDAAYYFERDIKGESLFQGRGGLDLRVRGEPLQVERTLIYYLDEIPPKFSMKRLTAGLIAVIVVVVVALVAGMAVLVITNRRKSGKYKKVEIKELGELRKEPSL
TEST_DETAILS: cell-based or functional assay
In this section, each of the binders is paired with its reported Internalization %, MDA-MB-231, 1 µg/ml, 2 h.

INSERT INTO measurements (binder, result) VALUES
  ('9F7 (antibody, V domains shown, Rabbit-derived clone; LEM construct: VH + rabbit IgG CH1 + human IgG1 CH2-CH3) VH: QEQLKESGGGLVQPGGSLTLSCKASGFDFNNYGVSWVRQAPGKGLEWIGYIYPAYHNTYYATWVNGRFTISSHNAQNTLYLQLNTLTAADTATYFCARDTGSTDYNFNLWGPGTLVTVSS VL: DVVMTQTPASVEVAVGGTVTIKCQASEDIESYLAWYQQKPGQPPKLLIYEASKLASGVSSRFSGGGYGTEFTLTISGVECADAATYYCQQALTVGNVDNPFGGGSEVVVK', '33%');

From here, focus on the item given below.
Summary for this binder, 63H3 (antibody, V domains shown, Rabbit-derived clone; LEM construct: VH + rabbit IgG CH1 + human IgG1 CH2-CH3) VH: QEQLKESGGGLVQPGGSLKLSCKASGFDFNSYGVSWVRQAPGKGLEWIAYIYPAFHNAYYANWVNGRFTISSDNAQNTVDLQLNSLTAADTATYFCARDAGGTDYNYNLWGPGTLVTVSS VL: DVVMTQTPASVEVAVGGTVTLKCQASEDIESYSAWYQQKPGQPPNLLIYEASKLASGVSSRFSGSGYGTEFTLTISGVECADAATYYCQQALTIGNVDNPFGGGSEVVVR : Internalization %, MDA-MB-231, 1 µg/ml, 2 h is 38%
